# System: U2OS
# protocol: Incucyte cell viability with U2OS; further: unitless GR value; below 1 slowed growth and below 0 cell loss
# Assay type: toxicity, cell-based
# condition.details: human, 6 h, 10 µM, compound concentration 10 uM, replicate number 2
recorded.metric: Growth Rate

compound="Cc1ccc2c(N)c(C(=O)NC3CCc4cc(N5CC6CCC(C5)N6)ccc4C3)sc2n1.O=CO (stereo not given)" system=U2OS reported_result=0.37
compound=CCN1C(=O)c2cc(C)ccc2N(C)c2ncccc21 system=U2OS reported_result=0.81
compound=NC1=NC(=O)/C(=C2\CCNC(=O)c3[nH]c4ccccc4c32)N1 system=U2OS reported_result=0.45
compound=CC(C)(O)[C@H]1CC[C@H](Nc2ccc3ncc(-c4cccc(C(F)(F)F)c4)n3n2)CC1 system=U2OS reported_result=0.42
compound=Cc1c(NC(=O)COc2ccc(Cl)cc2C(=O)c2cc(F)cc(C(F)(F)F)c2)ccc(C(=O)O)c1F system=U2OS reported_result=-0.88
compound=O=C(Nc1cc(C(F)(F)F)cc(C(F)(F)F)c1)c1cc(Cl)ccc1O system=U2OS reported_result=-0.23
compound=CN1CCN(c2nc(N)c3ccccc3n2)CC1 system=U2OS reported_result=0.36
compound=CO[C@H](C)CN1CC[C@@]2(C)c3ccc(O)cc3C[C@@H]1C2(C)C.Cl system=U2OS reported_result=0.94
compound=S=c1[nH]nc(-c2cccs2)n1-c1ccccc1 system=U2OS reported_result=0.93
compound=Cn1c(Nc2c(Cl)cccc2Cl)nc2ccc3nc[nH]c(=O)c3c21 system=U2OS reported_result=0.19
